Quick rule for you: melting point under 200 °C gets 1, anything else gets 0.

> print(dat)
                                   molecule  cat
1  CC(C)CN1CCCC[C@@H]1CNc1nc(Oc2cccc3[nH]c(=O)c(N)nc23)cc(-c2ccc(C(F)(F)F)cc2)n1 [Example 121]    0

Problem: Take the molecule CC(=O)Nc1nc2c(Oc3cc(-c4ccc(C(F)(F)F)cc4)nc(NC[C@@H]4CCCN4C(=O)OC(C)(C)C)n3)cccc2s1 [Example 71] and say whether its melting point is less than 200 °C.
Result: 1

Problem: Take the molecule CC(=O)Nc1nc2c(Oc3cc(-c4ccc(C(F)(F)F)cc4)nc(N4CCN(C(=O)OC(C)(C)C)CC4)n3)cccc2s1 [Example 34] and say whether its melting point is less than 200 °C.
Result: 0

Problem: Take the molecule CC(=O)Nc1nc2c(Oc3cc(-c4ccc(C(F)(F)F)cc4)nc(NCC4CCCN(C(=O)OC(C)(C)C)C4)n3)cccc2s1 (centres unmarked) [Example 70] and say whether its melting point is less than 200 °C.
Result: 1

Problem: Take the molecule CC(C)CN1CCCC[C@H]1CNc1nc(Oc2cccc3[nH]c(=O)c(N)nc23)cc(-c2ccc(C(F)(F)F)cc2)n1 [Example 120] and say whether its melting point is less than 200 °C.
Result: 0

Problem: Take the molecule COC[C@H](C)Nc1nc(Oc2cccc3[nH]c(=O)c(N)nc23)cc(-c2ccc(C(F)(F)F)cc2)n1 [Example 114] and say whether its melting point is less than 200 °C.
Result: 0

Problem: Take the molecule CC(Nc1nc(Oc2cccc3[nH]c(=O)c(N)nc23)cc(-c2ccc(C(F)(F)F)cc2)n1)c1ccccn1 (centres unmarked) [Example 113] and say whether its melting point is less than 200 °C.
Result: 0

Problem: Take the molecule CC(=O)Nc1nc2c(Oc3cc(-c4ccc(C(F)(F)F)cc4)nc(NCc4cccnc4)n3)cccc2s1 [Example 53] and say whether its melting point is less than 200 °C.
Result: 0

Problem: Take the molecule CS(=O)(=O)Nc1cccc(CNc2nc(Oc3cccc4[nH]c(=O)c(N)nc34)cc(-c3ccc(C(F)(F)F)cc3)n2)c1 [Example 116] and say whether its melting point is less than 200 °C.
Result: 0

Problem: Take the molecule COCC(C)Nc1nc(Oc2cccc3[nH]c(=O)c(N)nc23)cc(-c2ccc(C(F)(F)F)cc2)n1 (centres unmarked) [Example 109] and say whether its melting point is less than 200 °C.
Result: 0

Problem: Take the molecule CS(=O)(=O)N1CCN(c2nc(Oc3cccc4[nH]c(=O)c(N)nc34)cc(-c3ccc(C(F)(F)F)cc3)n2)CC1 [Example 117] and say whether its melting point is less than 200 °C.
Result: 0

----------
Answer each item with its documented melting point.

Observe how each entry below is paired with its result.
> print(dat)
                                   compound         result
1  CC(=O)Nc1nc2c(Oc3cc(-c4ccc(C(F)(F)F)cc4)nc(-c4cccnc4)n3)cccc2s1  268 to 270 °C
2  CC(=O)Nc1nc2c(Oc3cc(-c4ccc(C(F)(F)F)cc4)nc(N4CCC(C(=O)O)CC4)n3)cccc2s1  277 to 278 °C

The compound listed as CC(=O)Nc1nc2c(Oc3cc(-c4ccc(C(F)(F)F)cc4)nc(N4CCCC(O)C4)n3)cccc2s1 (stereo not drawn) has a reported melting point of 198 °C
